- target_under_test: KRAS G12V (Homo sapiens, UniProt P01116, G12V)
- Construct: SW620-KRAS (G12V)-HiBit-KI cell (Pharmaron); host or cells: SW620-KRAS (G12V)-HiBit-KI cells (HiBiT knock-in at the endogenous KRAS locus)
- Sequence (P01116 1-188 isoform P01116-2 G12V): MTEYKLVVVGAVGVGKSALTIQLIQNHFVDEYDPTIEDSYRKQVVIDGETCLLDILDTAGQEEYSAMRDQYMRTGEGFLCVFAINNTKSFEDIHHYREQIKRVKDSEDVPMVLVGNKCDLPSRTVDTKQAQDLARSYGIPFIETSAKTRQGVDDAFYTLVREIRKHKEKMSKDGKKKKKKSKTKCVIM
- procedure_text: KRAS G12V HiBit assay
- Type: cell-based
- protocol_conditions: SW620-KRAS (G12V)-HiBit-KI cells, compound treatment for 24 hours, class symbols
measurement_label: DC50

molecule	target_under_test	DC50
CCc1c(F)ccc2cc(O)cc(-c3ncc4c(N5CCC[C@@](C)(O)C5)nc(OC[C@@]56CCCN5[C@H](COC(=O)N5CC7C(CN8CCC(c9ccc%10c(c9)n(C)c(=O)n%10C9CCC(=O)NC9=O)CC8)C7C5)CC6)nc4c3F)c12 (stereo partly drawn)	KRAS G12V (Homo sapiens, UniProt P01116, G12V)	10 to 100 nM
C#Cc1c(F)ccc2cc(O)cc(-c3ncc4c(N5CCC[C@@](C)(O)C5)nc(OC[C@@]56CCCN5[C@H](COC(=O)N5CC7(CC(N8CCC(c9ccc%10c(c9)n(C)c(=O)n%10C9CCC(=O)NC9=O)CC8)C7)C5)CC6)nc4c3F)c12 (stereo partly drawn)	KRAS G12V (Homo sapiens, UniProt P01116, G12V)	< 10 nM

In: So what does the record say about DC50 for C#Cc1c(F)ccc2cc(O)cc(-c3ncc4c(N5CCC[C@@](C)(O)C5)nc(OC[C@@]56CCCN5[C@H](COC(=O)N5CCC(OC7CCN(c8ccc9c(c8)n(C)c(=O)n9C8CCC(=O)NC8=O)CC7)CC5)CC6)nc4c3F)c12 (stereo partly drawn) ?
Out: < 10 nM

----------
- target_under_test: KRAS G12V (Homo sapiens, UniProt P01116, G12V)
- Construct: SW620-KRAS (G12V)-HiBit-KI cell (Pharmaron); host or cells: SW620-KRAS (G12V)-HiBit-KI cells (HiBiT knock-in at the endogenous KRAS locus)
- procedure_text: KRAS G12V HiBit assay
- Assay type: cell-based
- protocol_conditions: SW620-KRAS (G12V)-HiBit-KI cells, compound treatment for 24 hours, class symbols
measurement_label: DC50

molecule	val
CCc1c(F)ccc2cc(O)cc(-c3ncc4c(N5CCC[C@@](C)(O)C5)nc(OC[C@@]56CCCN5[C@H](COC(=O)N5CCN(CC7CCN(c8ccc9c(c8)n(C)c(=O)n9C8CCC(=O)NC8=O)CC7)CC5)CC6)nc4c3F)c12 (stereo partly drawn) [Compound 97]	< 10 nM

In: Given C#Cc1c(F)ccc2cc(O)cc(-c3ncc4c(N5CCCC(F)(F)C5)nc(OC[C@@]56CCCN5[C@H](COC(=O)N5CCC(CN7CCC(c8ccc9c(c8)n(C)c(=O)n9C8CCC(=O)NC8=O)CC7)CC5)CC6)nc4c3F)c12 (stereo partly drawn) [Compound 124] , state its recorded DC50.
Out: < 10 nM

In: Dear colleague, I am looking for the recorded DC50 of the following molecule: CCc1c(F)ccc2cc(O)cc(-c3ncc4c(N5CCC[C@@](C)(O)C5)nc(OC[C@@]56CCCN5[C@@H](COC(=O)N5CCC(COc7ccc8c(c7)n(C)c(=O)n8C7CCC(=O)NC7=O)CC5)CC6)nc4c3F)c12 (stereo partly drawn) [Compound 314]
Out: > 100 nM
